Each entry below carries its measured IC50, system: FLK-1 receptor (Mus musculus).
Sequence (P35918 whole entry, looked up): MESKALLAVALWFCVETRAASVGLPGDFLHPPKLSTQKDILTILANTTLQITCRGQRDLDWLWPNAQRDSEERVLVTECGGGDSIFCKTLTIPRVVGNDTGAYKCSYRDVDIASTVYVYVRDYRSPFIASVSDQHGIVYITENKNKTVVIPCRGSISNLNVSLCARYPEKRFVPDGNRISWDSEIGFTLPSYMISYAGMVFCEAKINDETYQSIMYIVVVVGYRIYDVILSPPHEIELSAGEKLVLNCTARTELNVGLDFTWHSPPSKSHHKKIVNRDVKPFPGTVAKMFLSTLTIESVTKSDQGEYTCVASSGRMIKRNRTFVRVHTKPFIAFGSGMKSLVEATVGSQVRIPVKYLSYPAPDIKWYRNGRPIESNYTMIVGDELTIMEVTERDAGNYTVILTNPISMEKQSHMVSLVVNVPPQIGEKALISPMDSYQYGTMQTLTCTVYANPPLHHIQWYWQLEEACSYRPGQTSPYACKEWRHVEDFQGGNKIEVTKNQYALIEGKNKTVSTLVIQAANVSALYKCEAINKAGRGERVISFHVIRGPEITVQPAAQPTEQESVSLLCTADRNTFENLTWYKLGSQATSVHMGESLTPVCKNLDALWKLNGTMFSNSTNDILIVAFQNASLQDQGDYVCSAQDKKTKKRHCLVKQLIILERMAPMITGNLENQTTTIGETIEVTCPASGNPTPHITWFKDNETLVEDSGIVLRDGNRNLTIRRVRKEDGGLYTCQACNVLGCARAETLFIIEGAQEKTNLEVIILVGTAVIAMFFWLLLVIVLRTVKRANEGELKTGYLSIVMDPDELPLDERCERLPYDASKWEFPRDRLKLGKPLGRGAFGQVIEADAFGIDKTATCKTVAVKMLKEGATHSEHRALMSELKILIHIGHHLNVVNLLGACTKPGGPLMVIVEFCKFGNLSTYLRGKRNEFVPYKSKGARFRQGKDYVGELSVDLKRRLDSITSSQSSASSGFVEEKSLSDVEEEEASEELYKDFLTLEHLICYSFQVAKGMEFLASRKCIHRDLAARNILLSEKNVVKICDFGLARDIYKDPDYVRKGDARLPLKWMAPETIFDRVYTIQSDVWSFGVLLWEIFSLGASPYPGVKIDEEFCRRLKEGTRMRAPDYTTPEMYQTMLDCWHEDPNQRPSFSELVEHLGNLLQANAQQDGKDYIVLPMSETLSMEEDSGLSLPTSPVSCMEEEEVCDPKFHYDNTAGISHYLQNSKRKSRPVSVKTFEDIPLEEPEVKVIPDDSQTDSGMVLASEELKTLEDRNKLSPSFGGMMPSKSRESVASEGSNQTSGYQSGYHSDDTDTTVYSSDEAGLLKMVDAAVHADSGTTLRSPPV
Assay Metric: IC50 (µM)

// map Cc1cc(C)c(/C=C2\C(=O)Nc3cccc(C)c32)[nH]1 to recorded IC50 (system: FLK-1 receptor (Mus musculus))
1

Lookup: IC50 / FLK-1 receptor (Mus musculus) / CC(C)c1cc(/C=C2\C(=O)Nc3ccccc32)cc(C(C)C)c1O
8.5

Requested read-out IC50, target or system FLK-1 receptor (Mus musculus), entry Cn1cccc1/C=C1\C(=O)Nc2ccccc21
20.4

Missing value: IC50, FLK-1 receptor (Mus musculus), entry O=C1Nc2ccccc2/C1=C/c1n[nH]cc1Cl . Fill in?
7.41

Any idea what IC50 came out for O=C1Nc2ccccc2/C1=C/c1ccc(N2CCOCC2)cc1 on FLK-1 receptor (Mus musculus)?
2.5

1 = COc1ccc(/C=C2\C(=O)Nc3ccccc32)cc1
2 = CCOC(=O)c1c(C)[nH]c(/C=C2\C(=O)Nc3ccccc32)c1C
Hey, which is lower on measured IC50, 1 or 2 ? Let me know the label of the one you choose.
2
(2: 0.07 µM, 1: 7.6 µM)

P = CSc1ccc(/C=C2\C(=O)Nc3ccccc32)s1
Q = O=C1Nc2ccccc2/C1=C/c1sccc1Br
R = Cc1c[nH]c(/C=C2\C(=O)Nc3ccccc32)c1CCC(=O)O
Arrange these 3 compounds in increasing order of IC50. Ranked list of labels, please, in the requested order.
R, P, Q
(R: 0.4 µM, P: 2.34 µM, Q: 15.4 µM)

* * *

Here's what we have: IC50 numbers for UniProtKB P35918.
Assay Metric: IC50 (µM)

Known results for compounds:
Given the compound O=C1Nc2ccc(Cl)cc2/C1=C/c1ccc[nH]1 , what is its reported IC50?
3

Given the compound O=C1Nc2ccc(Cl)cc2/C1=C/c1ccc(N2CCOCC2)cc1 , what is its reported IC50?
4.1

What does the record list as IC50 for CN(C)c1ccc(/C=C2\C(=O)Nc3ccccc32)cc1 ?
0.8

P = CC(C)(C)c1cc(/C=C2\C(=O)Nc3ccccc32)cc(C(C)(C)C)c1O
Q = O=C1Nc2ccccc2/C1=C/c1ccc(N2CCCCC2)cc1
R = Cc1cccc2c1/C(=C/c1ccc(N3CCN(C=O)CC3)cc1)C(=O)N2
S = O=CN1CCN(c2ccc(/C=C3\C(=O)Nc4ccccc43)cc2)CC1
# rank by IC50, ascending (min first) // format: requested-order list of labels
S, R, Q, P

* * *

Observed IC50 for Epidermal growth factor receptor (Homo sapiens), reported per entry below.

Solved cases (4 shown):
What reported IC50 corresponds to COc1ccc(/C=C2\C(=O)Nc3ccc(Cl)cc32)cc1C(C)(C)C on Epidermal growth factor receptor (Homo sapiens)?
19.3 µM

Please state recorded IC50 (tested on Epidermal growth factor receptor (Homo sapiens)) of CCc1ccc(/C=C2\C(=O)Nc3ccccc32)s1
Sequence (P00533 whole entry): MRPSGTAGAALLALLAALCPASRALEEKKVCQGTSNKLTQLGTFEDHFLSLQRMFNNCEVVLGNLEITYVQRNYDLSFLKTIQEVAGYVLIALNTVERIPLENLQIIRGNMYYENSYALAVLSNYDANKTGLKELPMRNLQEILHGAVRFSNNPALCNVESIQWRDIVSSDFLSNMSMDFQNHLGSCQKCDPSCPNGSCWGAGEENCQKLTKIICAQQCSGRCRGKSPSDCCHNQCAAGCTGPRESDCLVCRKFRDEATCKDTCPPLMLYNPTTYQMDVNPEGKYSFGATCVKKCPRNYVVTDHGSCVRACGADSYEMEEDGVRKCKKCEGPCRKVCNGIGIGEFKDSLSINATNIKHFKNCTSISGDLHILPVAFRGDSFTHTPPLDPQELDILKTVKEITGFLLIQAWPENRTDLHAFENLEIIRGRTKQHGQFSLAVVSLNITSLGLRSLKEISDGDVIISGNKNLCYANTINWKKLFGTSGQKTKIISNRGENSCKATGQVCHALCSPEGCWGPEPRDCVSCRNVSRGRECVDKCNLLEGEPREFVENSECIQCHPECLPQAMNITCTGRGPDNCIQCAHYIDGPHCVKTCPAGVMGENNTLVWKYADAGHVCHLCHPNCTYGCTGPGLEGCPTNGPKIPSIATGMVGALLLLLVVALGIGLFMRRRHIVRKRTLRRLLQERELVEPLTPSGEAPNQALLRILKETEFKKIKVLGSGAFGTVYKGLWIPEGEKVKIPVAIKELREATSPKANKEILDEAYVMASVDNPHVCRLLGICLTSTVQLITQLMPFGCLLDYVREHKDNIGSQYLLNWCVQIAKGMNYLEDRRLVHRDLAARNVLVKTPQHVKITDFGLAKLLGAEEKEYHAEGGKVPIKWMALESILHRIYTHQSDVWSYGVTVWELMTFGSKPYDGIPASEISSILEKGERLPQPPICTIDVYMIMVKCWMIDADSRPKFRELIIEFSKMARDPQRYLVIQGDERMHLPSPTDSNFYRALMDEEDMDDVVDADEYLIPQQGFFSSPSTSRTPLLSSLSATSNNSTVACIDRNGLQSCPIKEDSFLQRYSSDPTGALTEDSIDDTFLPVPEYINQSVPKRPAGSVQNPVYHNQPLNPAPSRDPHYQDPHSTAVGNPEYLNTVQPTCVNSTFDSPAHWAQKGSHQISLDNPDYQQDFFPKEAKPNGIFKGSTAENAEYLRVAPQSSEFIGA
44 µM

Form entry - test system: Epidermal growth factor receptor (Homo sapiens); read-out: IC50; molecule: CN(C)c1ccc(/C=C2\C(=O)N(C)c3ccccc32)cc1
> 100 µM

Identify the measured IC50 of COC(=O)CCc1c[nH]c(/C=C2\C(=O)Nc3ccccc32)c1C for Epidermal growth factor receptor (Homo sapiens).
> 100 µM

Now take the following molecule into account.
Test system Epidermal growth factor receptor (Homo sapiens); read-out IC50; what value for CCc1ccc(/C=C2/C(=O)Nc3ccccc32)o1 ?
> 100 µM

* * *

# Target Or Test System: Platelet-derived growth factor receptor beta (Homo sapiens, UniProt P09619)
# Sequence (P09619 whole entry): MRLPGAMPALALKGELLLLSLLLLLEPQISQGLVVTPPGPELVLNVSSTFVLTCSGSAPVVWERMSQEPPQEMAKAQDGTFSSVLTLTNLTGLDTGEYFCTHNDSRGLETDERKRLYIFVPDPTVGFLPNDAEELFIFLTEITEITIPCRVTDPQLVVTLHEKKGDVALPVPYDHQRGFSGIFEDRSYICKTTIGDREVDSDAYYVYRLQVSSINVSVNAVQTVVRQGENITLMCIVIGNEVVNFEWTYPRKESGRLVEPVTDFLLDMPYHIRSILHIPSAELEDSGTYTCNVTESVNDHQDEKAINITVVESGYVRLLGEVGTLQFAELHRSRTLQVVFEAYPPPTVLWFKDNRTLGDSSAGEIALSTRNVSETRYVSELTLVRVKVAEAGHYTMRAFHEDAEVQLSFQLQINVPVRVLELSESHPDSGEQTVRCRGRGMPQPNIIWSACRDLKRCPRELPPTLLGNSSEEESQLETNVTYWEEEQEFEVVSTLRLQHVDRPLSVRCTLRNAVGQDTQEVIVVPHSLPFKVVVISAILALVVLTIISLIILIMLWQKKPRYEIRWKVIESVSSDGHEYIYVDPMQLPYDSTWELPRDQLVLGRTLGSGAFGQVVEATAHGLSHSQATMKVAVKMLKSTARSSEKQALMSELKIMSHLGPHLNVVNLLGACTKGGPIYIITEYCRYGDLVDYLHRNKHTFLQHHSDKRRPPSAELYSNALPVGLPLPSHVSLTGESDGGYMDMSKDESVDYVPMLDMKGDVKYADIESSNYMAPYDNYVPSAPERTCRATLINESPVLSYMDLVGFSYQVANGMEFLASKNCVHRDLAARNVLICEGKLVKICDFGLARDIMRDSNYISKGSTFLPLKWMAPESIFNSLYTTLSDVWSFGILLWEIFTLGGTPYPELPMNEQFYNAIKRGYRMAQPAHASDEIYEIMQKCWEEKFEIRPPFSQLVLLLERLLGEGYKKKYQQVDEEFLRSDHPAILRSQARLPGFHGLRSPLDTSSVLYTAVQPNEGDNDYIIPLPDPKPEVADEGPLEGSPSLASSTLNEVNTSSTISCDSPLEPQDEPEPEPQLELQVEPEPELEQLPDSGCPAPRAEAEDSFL
Each item that follows carries a reported IC50.

Some compounds with recorded IC50:
# value lookup — system Platelet-derived growth factor receptor beta (Homo sapiens, UniProt P09619), readout IC50, item O=C1Nc2ccccc2/C1=C/c1ccc(Br)cc1
> 100 µM

Identify the measured IC50 of CCOC(=O)c1c(C)[nH]c(/C=C2\C(=O)Nc3ccccc32)c1C for Platelet-derived growth factor receptor beta (Homo sapiens, UniProt P09619).
> 100 µM

Form field - read-out: IC50; system: Platelet-derived growth factor receptor beta (Homo sapiens, UniProt P09619); submitted item: CCc1ccc(/C=C2\C(=O)Nc3ccccc32)s1
> 100 µM

Continuing:
Give the reported IC50 for O=C1Nc2ccccc2/C1=C/c1sccc1Br (system: Platelet-derived growth factor receptor beta (Homo sapiens, UniProt P09619)).
> 100 µM

Notebook entry, Platelet-derived growth factor receptor beta (Homo sapiens, UniProt P09619) assay: IC50 of COc1ccc(/C=C2\C(=O)Nc3ccccc32)cc1C(C)(C)C = ?
> 100 µM

Identify the measured IC50 of O=C1Nc2ccc([N+](=O)[O-])cc2/C1=C/c1ccc[nH]1 for Platelet-derived growth factor receptor beta (Homo sapiens, UniProt P09619).
41.7 µM

Lookup: IC50 / Platelet-derived growth factor receptor beta (Homo sapiens, UniProt P09619) / Cc1cccc2c1/C(=C/c1ccc(N3CCN(C=O)CC3)cc1)C(=O)N2
24.5 µM

* * *

For reference, pIC50 measured on Platelet-derived growth factor receptor beta (Homo sapiens):
pIC50: −log10 of the molar value.

Take a look at these entries with their results.
Request the reported pIC50 associated with CCc1c(/C=C2\C(=O)Nc3ccccc32)[nH]c(C)c1C
4.18

What measured pIC50 goes with CN(C)c1ccc(/C=C2\C(=O)N(C)c3ccccc32)cc1 ?
< 4.00

I am curious: what pIC50 value has been reported for CCOC(=O)c1c[nH]c(/C=C2\C(=O)Nc3ccccc32)c1C ?
< 4.00

# lookup: pIC50 of COc1ccc(/C=C2\C(=O)Nc3ccc(Cl)cc32)cc1C(C)(C)C
< 4.00

Find the recorded pIC50 belonging to Cc1cc(C)c(/C=C2\C(=O)Nc3cccc(C)c32)[nH]1 and report it.
< 4.00

Consider the molecule CCc1c(C)[nH]c(/C=C2\C(=O)Nc3ccccc32)c1C and give its measured pIC50.
< 4.00

Suppose we examine the molecule Cn1cc(Cl)c(/C=C2\C(=O)Nc3ccccc32)n1 ; what pIC50 value has been reported?
< 4.00

Name the reported pIC50 value associated with the molecule COc1c(Br)cc(/C=C2\C(=O)Nc3ccc(Cl)cc32)cc1C(C)(C)C
< 4.00

Others:
Looking for the measured pIC50 of Cc1c[nH]c(/C=C2\C(=O)Nc3ccccc32)c1CCC(=O)O , can you help?
4.22

What measured pIC50 goes with O=C1Nc2ccccc2/C1=C/c1ccc(N2CCCCC2)cc1 ?
< 4.00

Fill in: pIC50 of Cn1cccc1/C=C1\C(=O)Nc2ccccc21 is ___
< 4.00

* * *

# Target Or Test System: Receptor tyrosine-protein kinase erbB-2 (Homo sapiens)
pIC50: −log10 of the molar value.
Reported pIC50 values for the following compounds.

Worked cases, pIC50 given:
Kindly state the measured pIC50 obtained for Cn1cc(Cl)c(/C=C2\C(=O)Nc3ccccc32)n1 with Receptor tyrosine-protein kinase erbB-2 (Homo sapiens).
< 4.00

Form field: pIC50 recorded for Cc1c[nH]c(/C=C2\C(=O)Nc3ccccc32)c1C with Receptor tyrosine-protein kinase erbB-2 (Homo sapiens) (enter value)
< 4.00

Report pIC50 for CSc1ccc(/C=C2\C(=O)Nc3ccccc32)s1 tested on Receptor tyrosine-protein kinase erbB-2 (Homo sapiens).
< 4.00

New cases:
Could you share what pIC50 was measured for CCOC(=O)c1c(C)[nH]c(/C=C2\C(=O)Nc3ccccc32)c1C , tested on Receptor tyrosine-protein kinase erbB-2 (Homo sapiens)?
< 4.00

* * *

So I've got pIC50 readings for Receptor tyrosine-protein kinase erbB-2 (Homo sapiens), take a look.
pIC50: −log10 of the molar value.

Which pIC50 is listed for COc1ccc(/C=C2\C(=O)Nc3ccc(Cl)cc32)cc1C(C)(C)C ?
4.79

Continuing:
Need pIC50, item Cn1cccc1/C=C1\C(=O)Nc2ccccc21
< 4.00

Data request, read-out pIC50, for O=C1Nc2ccc(Br)cc2/C1=C/c1ccc(N2CCOCC2)cc1
< 5.00

* * *

Notes on pIC50 obtained with Receptor tyrosine-protein kinase erbB-2 (Homo sapiens, UniProt P04626).
Sequence (P04626 whole entry): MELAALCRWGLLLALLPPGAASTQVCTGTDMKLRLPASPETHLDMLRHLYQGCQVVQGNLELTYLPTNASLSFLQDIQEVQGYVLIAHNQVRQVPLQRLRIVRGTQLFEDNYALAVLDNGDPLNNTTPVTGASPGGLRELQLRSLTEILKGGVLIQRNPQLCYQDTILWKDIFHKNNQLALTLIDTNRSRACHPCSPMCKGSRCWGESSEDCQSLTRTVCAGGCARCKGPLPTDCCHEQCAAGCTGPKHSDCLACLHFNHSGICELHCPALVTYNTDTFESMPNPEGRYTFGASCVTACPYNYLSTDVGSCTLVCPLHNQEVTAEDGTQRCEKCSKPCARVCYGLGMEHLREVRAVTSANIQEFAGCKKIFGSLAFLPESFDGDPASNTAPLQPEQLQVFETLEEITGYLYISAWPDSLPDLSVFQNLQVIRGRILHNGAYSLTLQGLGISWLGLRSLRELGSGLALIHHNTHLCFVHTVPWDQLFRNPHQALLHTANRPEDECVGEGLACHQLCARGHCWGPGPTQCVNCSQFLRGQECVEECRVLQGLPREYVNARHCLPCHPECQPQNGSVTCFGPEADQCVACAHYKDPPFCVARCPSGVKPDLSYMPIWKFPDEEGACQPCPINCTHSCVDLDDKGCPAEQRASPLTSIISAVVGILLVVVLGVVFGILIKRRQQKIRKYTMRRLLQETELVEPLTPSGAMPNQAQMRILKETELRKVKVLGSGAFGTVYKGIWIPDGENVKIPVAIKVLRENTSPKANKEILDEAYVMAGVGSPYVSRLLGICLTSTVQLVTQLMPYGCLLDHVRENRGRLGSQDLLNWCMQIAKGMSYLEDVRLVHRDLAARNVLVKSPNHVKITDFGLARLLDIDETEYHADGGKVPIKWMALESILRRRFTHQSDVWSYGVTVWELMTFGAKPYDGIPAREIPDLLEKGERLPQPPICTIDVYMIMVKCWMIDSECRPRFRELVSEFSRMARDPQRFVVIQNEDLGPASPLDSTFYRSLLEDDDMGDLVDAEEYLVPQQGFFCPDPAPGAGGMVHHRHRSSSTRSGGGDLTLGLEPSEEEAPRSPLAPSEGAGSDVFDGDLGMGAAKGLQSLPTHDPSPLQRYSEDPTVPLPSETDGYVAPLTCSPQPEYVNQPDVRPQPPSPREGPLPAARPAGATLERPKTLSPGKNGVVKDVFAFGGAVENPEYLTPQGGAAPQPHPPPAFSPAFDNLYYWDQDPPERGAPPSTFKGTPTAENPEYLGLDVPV
pIC50: −log10 of the molar value.

Below, each entry is followed by its recorded pIC50 result.
Please state recorded pIC50 (tested on Receptor tyrosine-protein kinase erbB-2 (Homo sapiens, UniProt P04626)) of COC(=O)CCc1c[nH]c(/C=C2\C(=O)Nc3ccccc32)c1C
< 4.00

What pIC50 appears in the records for this compound with Receptor tyrosine-protein kinase erbB-2 (Homo sapiens, UniProt P04626)? O=C1Nc2ccccc2/C1=C/c1sccc1Br
< 4.00

More entries:
Hi! What's the reported pIC50 for O=CN1CCN(c2ccc(/C=C3\C(=O)Nc4ccccc43)cc2)CC1 on Receptor tyrosine-protein kinase erbB-2 (Homo sapiens, UniProt P04626)?
4.04

Under Receptor tyrosine-protein kinase erbB-2 (Homo sapiens, UniProt P04626): pIC50 value of Cc1cccc2c1/C(=C/c1ccc[nH]1)C(=O)N2 ?
< 4.00

What measured pIC50 is associated with Cc1ccc(/C=C2/C(=O)Nc3ccccc32)o1 on Receptor tyrosine-protein kinase erbB-2 (Homo sapiens, UniProt P04626)?
< 4.00

This collection of values is drawn from ChEMBL document CHEMBL1131018.
